# credit: PubChem BioAssay (EPA / NIEHS)

Method: BSK_3C_uPAR: BioMAP Diversity Plus: 3C Assay for Urokinase-type plasminogen activator receptor (uPAR) Biomarker Activity (AID 2282998)
Recorded conditions: BioMAP 3C HUVEC, uPAR biomarker ELISA; actives raise or lower the signal
The source made the active and inactive calls. Rule for the calls: active = hit-call score of the fitted dose curve at least 0.9, where 1 is the maximum; inactive = score below 0.9.
Form entry, call: pick from 1 (active), -1 (inactive)

Compound: CCCN(CCC)C(=O)SCC
Category: -1

Compound: CC(C)CCCCCCc1ccc(O)cc1
Category: 1

INPUT: Dear colleague, could you share the recorded outcome for CCCCOC(=O)C(C)Oc1ccc(Oc2ccc(C(F)(F)F)cn2)cc1 (stereo not drawn) when you have a moment?
OUTPUT: -1

INPUT: Call for entry O=C(Nc1ccc([N+](=O)[O-])cc1Cl)c1cc(Cl)ccc1O :
OUTPUT: 1

INPUT: Outcome? CSC(=O)c1cccc2nnsc12
OUTPUT: -1

INPUT: Called result for O=C(O)c1ccccc1
OUTPUT: -1

INPUT: Field: outcome | Entry: CCCOC(=O)NCCCN(C)C
OUTPUT: -1
